TARGET SYSTEM: Plasminogen (Homo sapiens)
Sequence (P00747 97-580 limits assumed): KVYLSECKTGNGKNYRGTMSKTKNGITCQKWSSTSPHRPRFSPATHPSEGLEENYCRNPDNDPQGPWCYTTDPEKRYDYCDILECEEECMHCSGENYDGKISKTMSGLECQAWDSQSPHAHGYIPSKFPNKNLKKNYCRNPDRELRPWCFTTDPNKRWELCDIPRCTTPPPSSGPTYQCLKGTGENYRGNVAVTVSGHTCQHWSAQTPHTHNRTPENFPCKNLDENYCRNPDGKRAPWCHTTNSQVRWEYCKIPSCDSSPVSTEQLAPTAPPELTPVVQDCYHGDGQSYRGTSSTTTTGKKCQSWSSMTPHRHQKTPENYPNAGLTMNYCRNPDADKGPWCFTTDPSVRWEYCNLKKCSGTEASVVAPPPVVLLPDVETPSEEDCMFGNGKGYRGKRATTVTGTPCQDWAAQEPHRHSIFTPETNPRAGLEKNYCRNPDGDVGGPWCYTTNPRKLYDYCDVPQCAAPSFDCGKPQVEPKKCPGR
Sequence (P00747 581-810 limits assumed): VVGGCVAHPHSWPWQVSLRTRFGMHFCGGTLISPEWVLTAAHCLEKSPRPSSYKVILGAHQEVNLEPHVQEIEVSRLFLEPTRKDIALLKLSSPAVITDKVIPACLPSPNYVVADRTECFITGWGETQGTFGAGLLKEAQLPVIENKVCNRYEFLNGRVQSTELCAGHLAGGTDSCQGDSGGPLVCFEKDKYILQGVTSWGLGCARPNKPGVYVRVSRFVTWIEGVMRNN
QUANTITY MEASURED: Ki (µM)
Report as a plain number; the unit µM is understood.

Can you share its Ki? I mean this compound: N=C(N)c1ccc(CNC(=O)[C@@H]2CCCN2C(=O)[C@H](NCC(=O)O)C(c2ccccc2)c2ccccc2)s1 7.4

====

PROTOCOL TEXT: In vitro metabolic stability was determined using liver S9 fraction from monkey at initial concentration of 20 uM
Format: ADME, subcellular
CONDITION PARAMETERS: simiiformes, read-out: Recovery
# maps each entry to its remaining at 20 µM
Report as a plain number; the unit % is understood.

                              line_notation   quantity_measured  measurement
0  COC(=O)N[C@@H](C(=O)N1CCC[C@H]1C(=O)NCc1ccc(C(=N)N)cc1)C(c1ccccc1)c1ccccc1  remaining at 20 µM           39

Can you share its remaining at 20 µM? I mean this compound: N=C(N)c1ccc(CNC(=O)[C@@H]2CCCN2C(=O)[C@H](NS(N)(=O)=O)C(c2ccccc2)c2ccccc2)s1 81

Try N=C(N)c1ccc(CNC(=O)[C@@H]2CCCN2C(=O)[C@H](NCC(=O)O)C(c2ccccc2)c2ccccc2)s1 next. 83

Try N=C(N)c1ccc(CNC(=O)[C@@H]2CCCN2C(=O)[C@H](NCC(=O)O)C(c2ccccc2)c2ccccc2)cc1 next. 80

Try N=C(N)c1ccc(CNC(=O)[C@@H]2CCCN2C(=O)[C@H](NS(N)(=O)=O)C(c2ccccc2)c2ccccc2)cc1 next. 87

====

Prothrombin (Homo sapiens) measurements of Ki, listed per entry.

Examples with their reported Ki follow.
                              line_notation               target_system  quantity_measured  measurement
0  N=C(N)c1cc(CNC(=O)[C@@H]2CCCN2C(=O)[C@H](NS(N)(=O)=O)C(c2ccccc2)c2ccccc2)cs1  Prothrombin (Homo sapiens)                 Ki      0.16 nM
1  N=C(N)c1csc(CNC(=O)[C@@H]2CCCN2C(=O)[C@H](NCC(=O)O)C(c2ccccc2)c2ccccc2)n1  Prothrombin (Homo sapiens)                 Ki      0.64 nM
2  COC(=O)N[C@@H](C(=O)N1CCC[C@H]1C(=O)NCc1ccc(C(=N)N)nc1)C(c1ccccc1)c1ccccc1  Prothrombin (Homo sapiens)                 Ki     0.017 nM

Here is the next item to consider.
Can you share its Ki? I mean this compound: N=C(N)c1ccc(CNC(=O)[C@@H]2CCCN2C(=O)[C@H](NCCC(=O)O)C(c2ccccc2)c2ccccc2)s1 0.01 nM
